# target: GST-SBP-SLBP (stem-loop binding protein) (Homo sapiens, UniProt Q14493 1-270)
# assay_overview: targeted RNA Bind-n-Seq; RBNS binding buffer: 25 mM Tris pH 7.5, 150 mM KCl, 3 mM MgCl2, 0.1% Tween, 0.5 mg/mL BSA, 1 mM DTT; 27 nM protein, 750 pM RNA pool; temperature not stated; high values mean tight binding
# experimental_setup: protein: recombinant; tags: N-terminal GST and SBP (pGEX6P1-SBP)
measurement_label: binding signal

[
  {
    "binder": "consensus (structured_RNA) RNA: GGUCACGUCUCAAUCAACUCCCAAAGGUUCUUCUCAGAACCACCCAUCAACAGCUCGCAGUCAAG",
    "measured": "3.02 log2 fold change"
  },
  {
    "binder": "consensus (structured_RNA) RNA: GGUCACGUCUCAAUCAACUCCCAAAGGCCUUUUUGAAGGCCACCCAUCAACAGCUCGCAGUCAAG",
    "measured": "3.34 log2 fold change"
  },
  {
    "binder": "consensus (structured_RNA) RNA: GGUCACGUCUCAAUCAACUCCCAAAGGUCCUUUUUAGGGCCACCCAUCAACAGCUCGCAGUCAAG",
    "measured": "2.9 log2 fold change"
  }
]

All values here come from paper PMC5892938.
